Molecular target: glucocorticoid receptor (Rattus norvegicus)
Construct: The thymus was removed and put into ice-cold saline; The tissue was homogenized in a Potter Elvehjem homogenizer; from tissue; host or cells: thymus of male Sprague-Dawley rats, 20,000×g supernatant of homogenate
Experiment: Affinity to the glucocorticoid receptor: competition with 3H-labelled dexamethasone in rat thymus 20,000×g supernatant
Settings: curves compared at the 50% specific binding level, referenced to budesonide = 1, 3 nM 3H-dexamethasone, about 24 h at 0° C.
// class assignment uses RBA (relative binding affinity) with these ranges: low interval = under 0.5, middle interval = from 0.5 up to 0.8, high interval = 0.8 and over

Molecule	Group
CCCOC(=O)OC(C)OC(=O)[C@@]1(OC(=O)CC)[C@@H](C)C[C@H]2[C@@H]3CCC4=CC(=O)C=C[C@]4(C)[C@@]3(F)[C@@H](O)C[C@@]21C (stereo partly shown) [Example 7b]	high interval
CCOC(=O)OC(C)OC(=O)[C@@]1(OC(=O)CC)[C@H](C)C[C@H]2[C@@H]3CCC4=CC(=O)C=C[C@]4(C)[C@@]3(F)[C@@H](O)C[C@@]21C (stereo partly shown) [Example 24b]	middle interval
CCC(=O)O[C@]1(C(=O)OC(C)OC(C)=O)[C@@H](C)C[C@H]2[C@@H]3CCC4=CC(=O)C=C[C@]4(C)[C@@]3(F)[C@@H](O)C[C@@]21C (single isomer, unassigned) [4 (epimer B)]	middle interval
CCCCC(=O)O[C@]1(C(=O)OC(C)OC(=O)OC(C)C)[C@@H](C)C[C@H]2[C@@H]3CCC4=CC(=O)C=C[C@]4(C)[C@@]3(F)[C@@H](O)C[C@@]21C (stereo partly shown) [Example 22b]	middle interval
CCC(=O)O[C@]1(C(=O)OC(C)OC(=O)OCC2CC2)[C@@H](C)C[C@H]2[C@@H]3CCC4=CC(=O)C=C[C@]4(C)[C@@]3(Cl)[C@@H](O)C[C@@]21C (stereo partly shown) [Example 32b]	high interval
CCC(=O)O[C@]1(C(=O)OC(C)OC(=O)OC2CCCC2)[C@@H](C)C[C@H]2[C@@H]3CCC4=CC(=O)C=C[C@]4(C)[C@@]3(F)[C@@H](O)C[C@@]21C (stereo partly shown) [Example 14b]	high interval
CCC(=O)O[C@]1(C(=O)OC(C)OC(=O)OC2CCC2)[C@@H](C)C[C@H]2[C@@H]3CCC4=CC(=O)C=C[C@]4(C)[C@@]3(F)[C@@H](O)C[C@@]21C (stereo partly shown) [Example 13b]	high interval
CCC(=O)O[C@]1(C(=O)OC(C)OC(=O)OC(C)C)[C@@H](C)C[C@H]2[C@@H]3CCC4=CC(=O)C=C[C@]4(C)[C@@]3(F)[C@@H](O)C[C@@]21C (stereo partly shown) [Example 8b]	high interval
CCC(=O)O[C@]1(C(=O)OC(C)OC(=O)OCc2ccc([N+](=O)[O-])cc2)[C@@H](C)C[C@H]2[C@@H]3CCC4=CC(=O)C=C[C@]4(C)[C@@]3(F)[C@@H](O)C[C@@]21C (single isomer, unassigned) [Example 19b]	middle interval
CCC(=O)O[C@]1(C(=O)OC(C)OC(=O)OC2CCCCC2)[C@@H](C)C[C@H]2[C@@H]3CCC4=CC(=O)C=C[C@]4(C)[C@@]3(F)[C@@H](O)C[C@@]21C (stereo partly shown) [Example 15b]	middle interval
CCC(=O)O[C@]1(C(=O)OC(C)OC(=O)NC(C)C)[C@@H](C)C[C@H]2[C@@H]3CCC4=CC(=O)C=C[C@]4(C)[C@@]3(F)[C@@H](O)C[C@@]21C (single isomer, unassigned) [2 (epimer B)]	low interval
C=CCOC(=O)OC(C)OC(=O)[C@@]1(OC(=O)CC)[C@@H](C)C[C@H]2[C@@H]3CCC4=CC(=O)C=C[C@]4(C)[C@@]3(F)[C@@H](O)C[C@@]21C (stereo partly shown) [Example 9b]	low interval
CCCCC(=O)O[C@]1(C(=O)OC(C)OC(=O)N(CC)CC)[C@@H](C)C[C@H]2[C@@H]3CCC4=CC(=O)C=C[C@]4(C)[C@@]3(F)[C@@H](O)C[C@@]21C (single isomer, unassigned) [3 (epimer B)]	low interval
CCOC(=O)OC(C)OC(=O)[C@@]1(OC(=O)CC)[C@H](C)C[C@H]2[C@@H]3C[C@H](F)C4=CC(=O)C=C[C@]4(C)[C@@]3(F)[C@@H](O)C[C@@]21C (single isomer, unassigned) [Example 26b]	low interval
CCC(=O)O[C@]1(C(=O)OC(C)OC(=O)OC)[C@@H](C)C[C@H]2[C@@H]3CCC4=CC(=O)C=C[C@]4(C)[C@@]3(F)[C@@H](O)C[C@@]21C (stereo partly shown) [Example 6b]	low interval
CCOC(=O)OC(C)OC(=O)[C@@]1(OC(=O)CC)[C@@H](C)C[C@H]2[C@@H]3CCC4=CC(=O)C=C[C@]4(C)[C@@]3(Cl)[C@@H](O)C[C@@]21C (stereo partly shown) [Example 28b]	high interval

----------
Molecular target: glucocorticoid receptor (Rattus norvegicus, UniProt P06536)
Construct: The thymus was removed and put into ice-cold saline; The tissue was homogenized in a Potter Elvehjem homogenizer; from tissue; host or cells: thymus of male Sprague-Dawley rats, 20,000×g supernatant of homogenate
Sequence (P06536 1-795): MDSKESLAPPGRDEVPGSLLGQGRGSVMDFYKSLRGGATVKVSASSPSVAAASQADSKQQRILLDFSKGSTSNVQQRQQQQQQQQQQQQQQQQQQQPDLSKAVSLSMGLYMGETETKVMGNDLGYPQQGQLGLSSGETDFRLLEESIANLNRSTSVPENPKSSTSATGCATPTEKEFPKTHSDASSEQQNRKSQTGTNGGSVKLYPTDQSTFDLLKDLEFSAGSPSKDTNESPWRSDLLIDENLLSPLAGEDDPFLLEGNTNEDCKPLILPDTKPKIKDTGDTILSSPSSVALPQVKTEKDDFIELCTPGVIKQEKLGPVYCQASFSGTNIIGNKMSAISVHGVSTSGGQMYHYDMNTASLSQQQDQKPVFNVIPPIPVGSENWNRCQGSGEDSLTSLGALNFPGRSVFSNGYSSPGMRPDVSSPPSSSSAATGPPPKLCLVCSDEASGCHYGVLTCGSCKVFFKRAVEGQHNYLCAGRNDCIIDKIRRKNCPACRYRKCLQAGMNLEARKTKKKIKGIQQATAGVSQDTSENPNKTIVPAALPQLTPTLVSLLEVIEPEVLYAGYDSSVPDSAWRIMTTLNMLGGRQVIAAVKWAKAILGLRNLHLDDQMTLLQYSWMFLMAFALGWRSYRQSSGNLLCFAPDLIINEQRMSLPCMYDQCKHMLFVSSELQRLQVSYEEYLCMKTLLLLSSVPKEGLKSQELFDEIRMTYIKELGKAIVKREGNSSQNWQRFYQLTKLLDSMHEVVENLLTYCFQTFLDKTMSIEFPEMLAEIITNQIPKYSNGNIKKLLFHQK
Assay: Affinity to the glucocorticoid receptor: competition with 3H-labelled dexamethasone in rat thymus 20,000×g supernatant
Conditions: curves compared at the 50% specific binding level, referenced to budesonide = 1, 3 nM 3H-dexamethasone, about 24 h at 0° C.
Property name: RBA (relative binding affinity)

Compound	Val
CCC(=O)O[C@]1(C(=O)OC(C)OC(=O)OCC(C)C)[C@@H](C)C[C@H]2[C@@H]3CCC4=CC(=O)C=C[C@]4(C)[C@@]3(F)[C@@H](O)C[C@@]21C (stereo partly drawn) [Example 10b]	0.82
CCOC(=O)OC(C)OC(=O)[C@@]1(OC(=O)CC)[C@@H](C)C[C@H]2[C@@H]3CCC4=CC(=O)C=C[C@]4(C)[C@@]3(F)[C@@H](O)C[C@@]21C (single isomer, unassigned) [1 (epimer B)]	0.80
C=C(C)COC(=O)OC(C)OC(=O)[C@@]1(OC(=O)CC)[C@@H](C)C[C@H]2[C@@H]3CCC4=CC(=O)C=C[C@]4(C)[C@@]3(F)[C@@H](O)C[C@@]21C (stereo partly drawn) [Example 16b]	0.51
